target: Beta-secretase 1 (Homo sapiens, UniProt P56817); test: Inhibition of recombinant human BACE1 (1 to 460 residues) expressed in baculovirus infected insect cells at 10 uM using Rh-EVNLDAEFK-Quencher as substrate incubated under dark condition for 90 mins by FRET assay relative to control
Sequence (P56817 whole entry, the tested form may be a part): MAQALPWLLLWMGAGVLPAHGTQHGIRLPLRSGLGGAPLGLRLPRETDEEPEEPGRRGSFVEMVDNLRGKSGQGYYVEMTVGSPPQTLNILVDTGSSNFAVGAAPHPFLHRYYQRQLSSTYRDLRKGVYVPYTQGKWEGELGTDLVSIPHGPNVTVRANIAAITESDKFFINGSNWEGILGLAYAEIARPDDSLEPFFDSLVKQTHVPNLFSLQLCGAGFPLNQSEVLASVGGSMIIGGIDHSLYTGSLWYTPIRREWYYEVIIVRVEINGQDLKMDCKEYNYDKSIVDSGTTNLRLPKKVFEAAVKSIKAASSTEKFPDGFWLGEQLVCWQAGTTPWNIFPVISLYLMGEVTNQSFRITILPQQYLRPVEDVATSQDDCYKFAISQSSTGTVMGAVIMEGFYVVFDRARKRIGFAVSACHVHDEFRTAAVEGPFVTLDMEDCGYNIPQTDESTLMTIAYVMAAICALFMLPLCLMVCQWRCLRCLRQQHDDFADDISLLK
Output schema: class label derived from inhibition. Mapping: lower range: < 20%; middle range: ≥ 20% and < 60%; upper range: ≥ 60%

Prompt line: Bin? `N=c1oc2ccccc2cc1C(=O)Nc1cc(Br)ccc1NCc1cn(CCCN2C(=O)c3ccccc3C2=O)nn1`
Response line: upper range

Prompt line: Kindly identify the class of `COc1ccc(Cn2cc(CNc3ccc(Br)cc3NC(=O)c3cc4ccccc4oc3=N)nn2)cc1` .
Response line: lower range

Prompt line: Which category fits this record: `Cc1ccc(Cn2cc(CNc3ccc(Br)cc3NC(=O)c3cc4ccccc4oc3=N)nn2)cc1`
Response line: middle range

Prompt line: Please indicate the class for `N=c1oc2ccccc2cc1C(=O)Nc1cc(Br)ccc1NCc1cn(Cc2ccc(Br)cc2)nn1` based on its inhibition.
Response line: upper range

Prompt line: Please let me know in which category the item `N=c1oc2ccccc2cc1C(=O)Nc1cc(Br)ccc1NCc1cn(CCCCN2C(=O)c3ccccc3C2=O)nn1` belongs.
Response line: middle range

Prompt line: Returns: class label. Input: `N=c1oc2ccccc2cc1C(=O)Nc1cc(Br)ccc1NCc1cn(Cc2ccc(F)cc2)nn1`
Response line: middle range

Prompt line: Classify this compound: `N=c1oc2ccccc2cc1C(=O)Nc1cc(Br)ccc1NCc1cn(Cc2cccc(Cl)c2Cl)nn1`
Response line: middle range

Prompt line: Each compound maps to one class by inhibition. Which class for `N=c1oc2ccccc2cc1C(=O)Nc1cc(Br)ccc1NCc1cn(Cc2ccc(Cl)c(Cl)c2)nn1` ?
Response line: middle range

Prompt line: Lab note: which band did `N=c1oc2ccccc2cc1C(=O)Nc1cc(Br)ccc1NCc1cn(Cc2ccccc2)nn1` land in?
Response line: lower range

* * *

test system: PC-12; assay: Neuroprotection against amyloid beta (25 to 35)-induced cell death in rat PC12 cells at 25 uM preincubated for 3 hrs followed by amyloid beta addition measured after 24 hrs by MTT assay relative to control; assay type: functional
Hi! Could you tag entries with Activity below 40% as Satisfied, and those at or above as Not satisfied? Much appreciated.

Prompt line: Identify whether the compound `COc1ccc(Cn2cc(CNc3ccc(Br)cc3NC(=O)c3cc4ccccc4oc3=N)nn2)cc1` records Activity below 40%.
Response line: Satisfied

Prompt line: Dear colleague, could you confirm whether Activity of `N=c1oc2ccccc2cc1C(=O)Nc1cc(Br)ccc1NCc1cn(Cc2cccc(Cl)c2Cl)nn1` falls below 40%? Thanks.
Response line: Not satisfied

Prompt line: Determine whether this compound shows Activity lower than 40% (ties excluded): `N=c1oc2ccccc2cc1C(=O)Nc1cc(Br)ccc1NCc1cn(Cc2ccc(Br)cc2)nn1`
Response line: Satisfied

Prompt line: I'd appreciate it if you could check whether `N=c1oc2ccccc2cc1C(=O)Nc1cc(Br)ccc1NCc1cn(CCCN2C(=O)c3ccccc3C2=O)nn1` has Activity smaller than 40%.
Response line: Not satisfied

Prompt line: State whether 40% exceeds Activity recorded for `N=c1oc2ccccc2cc1C(=O)Nc1cc(Br)ccc1NCc1cn(Cc2ccc(Cl)c(Cl)c2)nn1` .
Response line: Not satisfied

Prompt line: Is Activity of `N=c1oc2ccccc2cc1C(=O)Nc1cc(Br)ccc1NCc1cn(Cc2ccc(F)cc2)nn1` strictly below 40%?
Response line: Satisfied

Prompt line: Just wondering, is Activity of `Cc1ccc(Cn2cc(CNc3ccc(Br)cc3NC(=O)c3cc4ccccc4oc3=N)nn2)cc1` below 40%?
Response line: Satisfied
